System: CAKI-1
Assay text: NCI tumour cell line growth inhibition, 48 h
Calls of active or inactive are those of the source. Rule as the data show it: active = GI50 up to about 1.1 µM and inactive = higher.

Compound	GI50
COc1cc(S(=O)(=O)Nc2ccc(-c3csc(N4C(=O)C(C)SC4c4ccccc4O)n3)cc2)ccc1Cl (centres undefined)	85.9 µM (inactive)
CC1=C(C(=O)Nc2ccccc2)C(c2ccc(C3C(C(=O)Nc4ccccc4)=C(C)NC(C)=C3C(=O)Nc3ccccc3)cc2)C(C(=O)Nc2ccccc2)=C(C)N1	4.02 µM (inactive)
CCCCCCCCCC(=O)CC(=O)c1c(O)cccc1O	33.2 µM (inactive)
CCOC(=O)NC(=O)c1cn(CCCCCCCCCCC(=O)NCCCN2CCN(CCCNC(=O)CCCCCCCCCCn3cc(C(=O)NC(=O)OCC)c(=O)[nH]c3=O)CC2)c(=O)[nH]c1=O	> 10 µM (inactive)
CCOC(=O)C1=C(O)C(=O)c2ccccc2C1=O	> 100 µM (inactive)
Oc1c(-c2ccccc2)nc2ccccn12	> 100 µM (inactive)
COc1cccc(-c2nc(O)c3ccccc3n2)c1OC	> 100 µM (inactive)
NC12CC3C4CC5(N)CC3C(C1)C(C5)C4C2	> 100 µM (inactive)
C[C@]12CC/C(=N\O)C=C1CC[C@@H]1[C@@H]2CC[C@]2(C)C(=N/O)/C(=C/c3ccncc3)C[C@@H]12	24.2 µM (inactive)
CC(C)(C)c1cc2c(O)c(c1)Cc1cc(C(C)(C)C)cc(c1O)Cc1cc(C(C)(C)C)cc(c1O)Cc1cc(C(C)(C)C)cc(c1O)Cc1cc(C(C)(C)C)cc(c1O)Cc1cc(C(C)(C)C)cc(c1O)Cc1cc(C(C)(C)C)cc(c1O)Cc1cc(C(C)(C)C)cc(c1O)C2	> 50 µM (inactive)
O=C1C2=C(C3=NCCc4c[nH]c1c43)c1c(cc(Br)c(O)c1Br)CCN2	20.3 µM (inactive)
CCN(CC)C(=S)SC1C(=O)NC(=O)NC1=O	> 100 µM (inactive)
O=C1CSC(c2ccc(Cl)cc2)N1c1ccc(-c2ccc(-n3c(-c4ccccc4)nc4ccccc4c3=O)cc2)cc1 (centres undefined)	29.4 µM (inactive)
COC(=O)/C(=N\Nc1nnc(C)n1N)C(C#N)c1ccccc1 (centres undefined)	> 100 µM (inactive)

###

System: UACC-62
Assay text: NCI tumour cell line growth inhibition, 48 h
The source made the active and inactive calls. No stated cut-off is given here; in the data, active = GI50 up to about 1.1 µM and inactive = higher.
Some compounds, each annotated with its measured GI50.

Compound	GI50
N=C(N)NCCCC(NC(=O)OCCCCCn1ccc(N)nc1=O)C(=O)O (stereo not drawn)	> 100 µM (inactive)
COc1cc(S(=O)(=O)Nc2nc(-c3ccc(N)cc3)cs2)ccc1Cl	28.4 µM (inactive)
CCOC(=O)C(C)c1cc(C2(C)OCCO2)c(C)o1 (stereo not drawn)	> 100 µM (inactive)
C[C@H]1O[C@@H](O[C@H]2[C@@H](O)C[C@H](O[C@H]3[C@@H](O)C[C@H](O[C@H]4CC[C@@]5(C)[C@H](CC[C@@H]6[C@@H]5CC[C@]5(C)[C@@H](C7=CC(=O)OC7)CC[C@]65O)C4)O[C@@H]3C)O[C@@H]2C)C[C@H](O)[C@@H]1O [DIGITOXIN]	0.0579 µM (active)
Cc1ccc(S(=O)(=O)O/N=C2\CCC\C2=C/c2ccccc2)cc1	8.45 µM (inactive)
O=c1cc(-c2ccccc2)nc(-n2[nH]c3c(c2=O)CCCC3)[nH]1	2.32 µM (inactive)
O=C(NCc1ccccc1)c1nn[nH]c1O	> 100 µM (inactive)
O=c1c2ccccc2[nH]c(=S)n1-c1ccc(/N=N/c2cccc3c(O)cccc23)cc1	24.4 µM (inactive)
